- Assay System: E3 ubiquitin-protein ligase XIAP (Homo sapiens)
- Test Description: XIAP binders, primary screen, biophysical, small-molecule microarray, fluorescence 635 nm (AID 1181);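 also: score merges 667 nm emission and signal to noise over triplicate slides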
- Test Parameters: small-molecule microarray binding, higher = more signal
Given measured composite z-score, output yes (1) if it is greater than or equal to 0.04 and no (0) if not.

* [N-]=[N+]=NCc1ccccc1[C@@H]1OC(c2ccc(OCCCO)cc2)=N[C@]1(CCS(=O)(=O)c1ccccc1)C(=O)NCc1ccccc1 | yes (1)
* COc1cc2c(cc1O)C(C1CC1)N(Cc1cc3c(cc1Br)OCO3)CC2 (centres undefined) | yes (1)
* CCN(CC)c1ccc(N2CC=CC34O[C@@H]5/C=C\CCCOC(=O)C5[C@H]3C(=O)N(CCO)[C@@H]4C2=O)cc1 (some centres undefined) | yes (1)
* CCCCN1CC=CC23O[C@@H]4/C=C\CCC(C)OC(=O)C4[C@H]2C(=O)N(CCCCCO)[C@@H]3C1=O (some centres undefined) | no (0)
* C=CCN1C(=O)[C@]2(O[C@H](CCO)[C@@H]([Si](C)(C)c3ccc(OC)cc3)[C@@H]2C)c2cc(N3C(=O)c4cccc5cccc3c45)ccc21 | no (0)
* C=CCNC(=O)[C@H]1[C@@H]2C(=O)O[C@@H](c3ccccc3)[C@@H](c3ccccc3)N2[C@@H](c2ccc(O)cc2)[C@]12C(=O)N(C(=O)OCCOC)c1ccc(C#CCNC(N)=O)cc12 | no (0)
* Cc1ccc(S[C@]2(C(=O)NCC(F)(F)F)CC(=O)N(C(C)C)[C@@H]2c2ccc(CO)cc2I)cc1 | no (0)
* COc1cc2c(cc1OC)CN(C(=O)[C@H]1[C@@H]3C(=O)O[C@@H](c4ccccc4)[C@@H](c4ccccc4)N3[C@@H](c3ccc(O)cc3)[C@]13C(=O)Nc1ccc(C#CCNC(N)=O)cc13)CC2 | no (0)
* Cc1ccc(C(C)CC(O)C2C=CC3C(=O)N(c4ccccc4)C(=O)C3N2Nc2ccc([N+](=O)[O-])cc2)o1 (centres undefined) | yes (1)
* C[N+](C)(C)CCCCNC(=O)[C@H]1C[C@H]2C(=O)N[C@@H](Cc3ccccc3)C(=O)N2[C@H]1c1ccc(O)cc1 | no (0)
* COCCOC(=O)N1C(=O)[C@@]2(c3cc(C#Cc4ccc(OC)cc4)ccc31)[C@H](c1ccccc1OCCO)N1[C@H](c3ccccc3)[C@H](c3ccccc3)OC(=O)[C@H]1[C@@H]2C(=O)N1CCN(c2ncccn2)CC1 | yes (1)
* CCCCCN1CC=CC23O[C@@H]4/C=C\CCCOC(=O)C4[C@H]2C(=O)N(CCCO)[C@@H]3C1=O (some centres undefined) | yes (1)
* C=CCOC(=O)[C@@H]1[C@H]2C(=O)O[C@H](c3ccccc3)[C@H](c3ccccc3)N2[C@H](c2ccc(OCCOC(=O)[C@@H]3C[C@@H]4C(=O)N[C@@H](Cc5ccccc5)C(=O)N4[C@@H]3c3ccc(O)cc3)cc2)[C@@]12C(=O)Nc1ccc(I)cc12 | yes (1)
* CN1C(=O)C2C=CC(C(O)c3cccs3)N(Nc3ccccc3)C2C1=O (centres undefined) | yes (1)
* O=C(C1N=C(c2ccc(OCCCO)cc2)N(c2ccccc2)O1)N1CCOCC1 (centres undefined) | no (0)
* COc1ccc(C(=O)Nc2ccc(CN3C(=O)[C@@]4(O[C@@H](CCO)[C@H]([Si](C)(C)c5ccc(OC)cc5)[C@H]4C)c4ccccc43)cc2)cc1 | no (0)
* CC(C)OC(=O)C=C1C[C@@H](c2ccccc2C(F)(F)F)O[C@@H](c2ccccc2C(F)(F)F)O1 | yes (1)
* O=C1OCCC=C[C@H]2OC34C=CCN(CCN5CCOCC5)C(=O)[C@H]3N(CCCCCCO)C(=O)[C@@H]4C12 (some centres undefined) | yes (1)
* CCCC[C@@H]1C[C@H]1[C@@H](NC(=O)c1ccco1)c1ccc(Cl)cc1 | no (0)
* CCCCc1cn(C[C@H](Cc2ccccc2)NC(=O)N[C@H](CO)CCc2oc(C(C)=O)c(C(=O)OC)c2C(=O)OC)nn1 | yes (1)
* O=C(NCc1ccccc1)[C@@H]1c2ccccc2C(=O)N(CC23CC4CC(CC(C4)C2)C3)[C@H]1c1ccc(CO)cc1 | yes (1)
* C=CC[C@]1(C(=O)N2CCCCC2)N=C(c2ccc(OCCCO)cc2)O[C@H]1c1ccccc1 | no (0)
* C=C(COC)/C(=C/C[C@@H](OC(C)=O)c1ccc(CO)o1)c1cnc2ccccc2c1 | no (0)
* COCCCNC(=O)C1N=C(c2ccc(OCCCO)cc2)N(c2ccccc2)O1 (centres undefined) | yes (1)
* OC([C@@H]1CC(c2ccccc2)=NO1)[C@H]1CC(c2ccccc2)=NO1 (some centres undefined) | no (0)
* COc1ccc(C(=O)Nc2cccc(CN3C(=O)[C@]4(O[C@H](CCO)[C@@H]([Si](C)(C)c5ccc(OC)cc5)[C@@H]4C)c4ccccc43)c2)cc1 | yes (1)
* C=C(/C(=C/C[C@@H](OC(C)=O)c1ccc(OCCO)cc1)c1cnc2ccccc2c1)C(C)C | yes (1)
* COc1cc(OC)c(C(O)C2C=CC3C(=O)NC(=O)C3N2Nc2ccc(Cl)cc2Cl)cc1Br (centres undefined) | yes (1)
* Cc1ccc(S[C@]2(C(=O)NCC(C)C)CC(=O)N(Cc3cc(C(F)(F)F)cc(C(F)(F)F)c3)[C@@H]2c2ccc(CO)cc2I)cc1 | no (0)
